# experimental details: Human HepG2 cell viability assay in 384 well format
# Type: toxicity, cell-based
# Set-up: dose 125 nL, time 70.5 hour; concentration not given beside the values
# test parameters: HepG2 cells, read-out: Inhibition
# cytotoxicity at 70.5 h per record follows
measured metric: cytotoxicity at 70.5 h (%)

[[record]]
compound = "CN(C)CCN(C)C[C@H]1CN2CC[C@H]1C[C@@H]2CNC(=O)Nc1ccsc1"
quantity_unit = "%"
recorded_number = -2.68

[[record]]
compound = "COc1cc(F)c(C(C)NC(=O)c2cccnc2C)cc1OC (stereo unspecified)"
quantity_unit = "%"
recorded_number = 2.35

[[record]]
compound = "O=C(NCC1(O)COCCN(Cc2cccc(O)c2)C1)c1ccccn1 (stereo unspecified)"
quantity_unit = "%"
recorded_number = -5.55

[[record]]
compound = "CCOc1ccnc(N[C@@H](Cc2ccccc2)C(N)=O)n1"
quantity_unit = "%"
recorded_number = -6.36

[[record]]
compound = "c1cncc(CN2Cc3nccn3CC(Cn3cncn3)C2)c1 (stereo unspecified)"
quantity_unit = "%"
recorded_number = 0.12

[[record]]
compound = "CS(=O)(=O)NCc1cncc2c1CCN(C(=O)N1CCCC1)C2"
quantity_unit = "%"
recorded_number = 11.1

[[record]]
compound = "c1cncc(CN2CCC(NCCc3ccc4c(c3)OCO4)CC2)c1"
quantity_unit = "%"
recorded_number = 0.189

[[record]]
compound = "Cc1nc2c(c(C)c1CC(=O)NCc1ccc(F)cc1)c(=O)[nH]n2C"
quantity_unit = "%"
recorded_number = 21.3

[[record]]
compound = "Cc1ccc(O)c(C(=O)NCCS(=O)(=O)Cc2ccccc2)c1"
quantity_unit = "%"
recorded_number = -5.32

[[record]]
compound = "CCCn1cc(-c2cc(-c3cnc(OC)nc3)c(C#N)c(N)n2)c(C)n1"
quantity_unit = "%"
recorded_number = -7.45

[[record]]
compound = "Cn1ccnc1CN1C[C@@H](CN2CCCC2)[C@@H](CO)C1"
quantity_unit = "%"
recorded_number = -5.13


###

# experimental details: Human HepG2 cell viability assay in 384 well format
# Assay type: toxicity, cell-based
# Design: dose 125 nL, time 70.5 hour; concentration not given beside the values
# test parameters: HepG2 cells, read-out: Inhibition
# cytotoxicity at 70.5 h per record follows
measured metric: cytotoxicity at 70.5 h (%)

[[record]]
compound = "CC(C)CC(Cc1cccc(Br)c1)C(=O)O (stereo unspecified)"
measured_metric = "cytotoxicity at 70.5 h"
recorded_number = 22.2

[[record]]
compound = "Cc1nc[nH]c1-c1nccn1-c1cccc(CN2CCCC2)c1"
measured_metric = "cytotoxicity at 70.5 h"
recorded_number = 13

[[record]]
compound = "O=C(Nc1ccccc1)[C@H]1CN2CC[C@H]1C[C@@H]2Cn1cc(CCO)nn1"
measured_metric = "cytotoxicity at 70.5 h"
recorded_number = -3.35

[[record]]
compound = "Cc1nc(CN2CCO[C@@H]3CNCC[C@@H]3C2)cs1"
measured_metric = "cytotoxicity at 70.5 h"
recorded_number = -5.71

[[record]]
compound = "Fc1ccc(CN2CCC(c3n[nH]c4nccnc34)CC2)cc1F"
measured_metric = "cytotoxicity at 70.5 h"
recorded_number = 7.75

[[record]]
compound = "CC(=O)N1CCC(NS(=O)(=O)c2cccnc2)CC1"
measured_metric = "cytotoxicity at 70.5 h"
recorded_number = 8

[[record]]
compound = "Cc1nc(N2CCCC2)nc2c1CCN(C(=O)CC1CCCC1)CC2"
measured_metric = "cytotoxicity at 70.5 h"
recorded_number = -9.31

[[record]]
compound = "CCOc1ncccc1C(=O)NC1CC(=O)N(CC(F)(F)F)C1 (stereo unspecified)"
measured_metric = "cytotoxicity at 70.5 h"
recorded_number = -6.92

[[record]]
compound = "O=C1NCCO[C@H]2CN(C(=O)Cc3cccs3)CC[C@@H]12"
measured_metric = "cytotoxicity at 70.5 h"
recorded_number = -7.13

[[record]]
compound = "CCc1[nH]n(C)c(=N)c1-c1ccc2c(c1)OCO2"
measured_metric = "cytotoxicity at 70.5 h"
recorded_number = -6.78

[[record]]
compound = "CC1CN(C(=O)c2cc[nH]c(=O)c2)c2ccccc21 (stereo unspecified)"
measured_metric = "cytotoxicity at 70.5 h"
recorded_number = -12.3

